experiment: Selectivity index, ratio of CC50 for human TZM-bl cells to EC50 for X4 tropic Human immunodeficiency virus 1 subtype D-UG070; format: toxicity, cell-based; conditions: read-out: Ratio CC50/EC50
Metric: selectivity ratio
// return a plain number; no unit text

The examples below pair each entry with its known result.
> print(dat)
                                   compound  measured.value
1  Cc1cc(N2C(=O)CSC2c2c(F)cccc2F)no1 (centres undefined)              33
2  CSc1nc(Cl)cc(N2C(=O)CSC2c2c(F)cccc2Cl)n1 (centres undefined)              15
3  CC(C)(C)c1cc(N2C(=O)CSC2c2c(Cl)cccc2Cl)no1 (centres undefined)            27.5
4           Cc1ccnc2c1NC(=O)c1cccnc1N2C1CC1            1520

### Prompt Check the records and state selectivity ratio for Cc1cc(C)nc(N2C(=O)CSC2c2c(Cl)cncc2Cl)c1 (centres undefined)
### Response 24.1

### Prompt Tell us which selectivity ratio value is on record for Cc1cc(N2C(=O)CSC2c2c(F)cccc2Cl)nc(C)c1Br (centres undefined)
### Response 402

### Prompt For the compound Cc1cc(C)nc(N2C(=O)CSC2c2c(Br)cncc2Br)c1 (centres undefined) , report selectivity ratio.
### Response 23.7

### Prompt Please indicate selectivity ratio recorded for Cc1cc(N2C(=O)CSC2c2c(Cl)cccc2Cl)nc(C)c1Br (centres undefined)
### Response 8.6

### Prompt Retrieve selectivity ratio measured for Cc1cccc(N2C(=O)CSC2c2c(Cl)cncc2Cl)n1 (centres undefined) and print it.
### Response 14.5

### Prompt Report selectivity ratio, nothing else, for this compound: Cc1nc(N2C(=O)CSC2c2c(Cl)cncc2Cl)ccc1Br (centres undefined)
### Response 7.89

### Prompt Tell us which selectivity ratio value is on record for Cc1cc(N2C(=O)CSC2c2c(Cl)cccc2Cl)no1 (centres undefined)
### Response 81

### Prompt Indicate the recorded selectivity ratio value for this compound: Cc1cc(N2C(=O)CSC2c2c(F)cccc2Cl)no1 (centres undefined)
### Response 51.3

### Prompt Respond only with selectivity ratio recorded for Cc1cccc(N2C(=O)CSC2c2c(Br)cncc2Br)n1 (centres undefined)
### Response 4.8

### Prompt Tell me its selectivity ratio given CC(C)(C)c1cc(N2C(=O)CSC2c2c(F)cccc2Cl)no1 (centres undefined) as the entry.
### Response 24.4

###

test: Selectivity index, ratio of CC50 for human TZM-bl cells to EC50 for R5 tropic Human immunodeficiency virus 1 subtype C-VB59; assay type: toxicity, cell-based; settings: read-out: Ratio CC50/EC50
selectivity ratio listing for selected compounds.
Format: numeric value only, no unit, no commentary.

The cases that follow already have their selectivity ratio on record.
> print(dat)
                                   compound             metric  measured.value
1  Cc1nc(N2C(=O)CSC2c2c(Cl)cncc2Cl)ccc1Br (stereo not drawn)  selectivity ratio            10.3
2  CC(C)(C)c1cc(N2C(=O)CSC2c2c(Cl)cccc2Cl)no1 (stereo not drawn)  selectivity ratio            26.9
3  Cc1cccc(N2C(=O)CSC2c2c(Cl)cncc2Cl)n1 (stereo not drawn)  selectivity ratio            23.1
4           Cc1ccnc2c1NC(=O)c1cccnc1N2C1CC1  selectivity ratio            1520
5  Cc1cc(N2C(=O)CSC2c2c(F)cccc2Cl)nc(C)c1Br (stereo not drawn)  selectivity ratio             574

### Prompt Tell us which selectivity ratio value is on record for Cc1cc(N2C(=O)CSC2c2c(F)cccc2Cl)no1 (stereo not drawn)
### Response 56.6

### Prompt Dear colleague, please send me the reported selectivity ratio for Cc1cc(C)nc(N2C(=O)CSC2c2c(Cl)cncc2Cl)c1 (stereo not drawn) when you can.
### Response 33.9

### Prompt Determine from records and report selectivity ratio for CSc1nc(Cl)cc(N2C(=O)CSC2c2c(F)cccc2Cl)n1 (stereo not drawn)
### Response 41.5

###

# reported CC50 at 48 h; entries follow
test: Cytotoxicity in human TZM-bl cells assessed as cell viability after 48 hrs by MTT assay; type: cell-based
Write the number in µg/mL without appending the unit.

Below: 5 compounds and their reported CC50 at 48 h.
> print(dat)
                                   compound  measured.value
1  Cc1nc(N2C(=O)CSC2c2c(Br)cncc2Br)ccc1Br (configuration not stated)            26.9
2  Cc1cc(N2C(=O)CSC2c2c(Cl)cccc2Cl)no1 (configuration not stated)            40.5
3  CC(C)(C)c1cc(N2C(=O)CSC2c2c(F)cccc2F)no1 (configuration not stated)            45.9
4  Cc1cccc(N2C(=O)CSC2c2c(Br)cncc2Br)n1 (configuration not stated)            26.7
5  Cc1cc(C)nc(N2C(=O)CSC2c2c(Br)cncc2Br)c1 (configuration not stated)            49.8

### Prompt Check the records and state CC50 at 48 h for Cc1cc(N2C(=O)CSC2c2c(F)cccc2Cl)nc(C)c1Br (configuration not stated)
### Response 40.2

### Prompt Indicate the recorded CC50 at 48 h value for this compound: CSc1nc(Cl)cc(N2C(=O)CSC2c2c(F)cccc2Cl)n1 (configuration not stated)
### Response 27

### Prompt Report measured CC50 at 48 h; entry is Cc1cc(N2C(=O)CSC2c2c(F)cccc2Cl)no1 (configuration not stated)
### Response 38.5

### Prompt Please report CC50 at 48 h for the following compound: Cc1cc(N2C(=O)CSC2c2c(F)cccc2F)no1 (configuration not stated)
### Response 62.7

### Prompt Identify CC50 at 48 h associated with the compound Cc1cc(N2C(=O)CSC2c2c(Cl)cncc2Cl)nc(C)c1Br (configuration not stated)
### Response 15.6

### Prompt For Cc1cc(C)nc(N2C(=O)CSC2c2c(Cl)cncc2Cl)c1 (configuration not stated) , write its CC50 at 48 h.
### Response 37.3

### Prompt Give the reported CC50 at 48 h for this compound. Cc1cccc(N2C(=O)CSC2c2c(Cl)cncc2Cl)n1 (configuration not stated)
### Response 45

###

Recorded inhibition values for a group of compounds are listed next.
biological target: Human immunodeficiency virus type 1 reverse transcriptase (Human immunodeficiency virus 1); assay: Inhibition of biotin-dNTP labeled HIV-1 reverse transcriptase using ABST as substrate at 100 ug/ml after 1 hr by ELISA
Express the result in % but write the number alone.

Use these answered entries as a reference point.
> print(dat)
                                   compound                        measurement.target  output.unit  measured.value
1  Cc1cc(C)nc(N2C(=O)CSC2c2c(Br)cncc2Br)c1 (configuration not stated)  Human immunodeficiency virus type 1 reverse transcriptase (Human immunodeficiency virus 1)            %            62.8
2  Cc1cc(N2C(=O)CSC2c2c(Cl)cccc2Cl)no1 (configuration not stated)  Human immunodeficiency virus type 1 reverse transcriptase (Human immunodeficiency virus 1)            %            75.4

### Prompt Identify measured inhibition associated with Cc1nc(N2C(=O)CSC2c2c(Cl)cncc2Cl)ccc1Br (configuration not stated)
### Response 76.6

### Prompt Give me measured inhibition, please, for this compound: Cc1cc(C)nc(N2C(=O)CSC2c2c(Cl)cncc2Cl)c1 (configuration not stated)
### Response 85.3

### Prompt Look up inhibition of Cc1cc(N2C(=O)CSC2c2c(F)cccc2F)no1 (configuration not stated) and report it.
### Response 98.1

### Prompt Assign inhibition to the following record: Cc1cc(N2C(=O)CSC2c2c(Cl)cncc2Cl)nc(C)c1Br (configuration not stated)
### Response 57.4

### Prompt # return recorded inhibition for entry Cc1cc(N2C(=O)CSC2c2c(F)cccc2Cl)no1 (configuration not stated)
### Response 95.5

### Prompt Return value of inhibition for input Cc1nc(N2C(=O)CSC2c2c(Br)cncc2Br)ccc1Br (configuration not stated) , no commentary.
### Response 75.9

### Prompt Return value of inhibition for input Cc1cccc(N2C(=O)CSC2c2c(Cl)cncc2Cl)n1 (configuration not stated) , no commentary.
### Response 84.1

### Prompt Give inhibition for the following compound: Cc1cc(N2C(=O)CSC2c2c(F)cccc2Cl)nc(C)c1Br (configuration not stated)
### Response 91.2

###

Reported EC50 by item:
system: Human immunodeficiency virus 1; assay: Antiviral activity against R5 tropic Human immunodeficiency virus 1 subtype B-ADA5 infected in human TZM-bl cells assessed as inhibition of virus-induced cytopathic effect after 2 days by luciferase assay; type: functional, organism-based; settings: Human immunodeficiency virus 1, subtype B-ADA5, TZM-bl, 48 h
Dear colleague, please return just the value in µg/mL, with no unit written.

> print(dat)
                                   molecule  measured.value
1  Cc1cccc(N2C(=O)CSC2c2c(Br)cncc2Br)n1 (stereo unspecified)            4.11
2           Cc1ccnc2c1NC(=O)c1cccnc1N2C1CC1            0.05
3  Cc1cc(N2C(=O)CSC2c2c(Cl)cccc2Cl)nc(C)c1Br (stereo unspecified)            0.85

### Prompt Please supply the value of reported EC50 for the item Cc1cc(N2C(=O)CSC2c2c(F)cccc2Cl)nc(C)c1Br (stereo unspecified)
### Response 0.12

### Prompt Entry CC(C)(C)c1cc(N2C(=O)CSC2c2c(Cl)cccc2Cl)no1 (stereo unspecified) needs its EC50 filled in; supply it.
### Response 2.4

### Prompt Using the record for Cc1cc(N2C(=O)CSC2c2c(Cl)cccc2Cl)no1 (stereo unspecified) , state its measured EC50.
### Response 0.65

### Prompt Check the records and state EC50 for CSc1nc(Cl)cc(N2C(=O)CSC2c2c(F)cccc2Cl)n1 (stereo unspecified)
### Response 1.26

### Prompt Complete the entry with EC50 for Cc1nc(N2C(=O)CSC2c2c(Cl)cncc2Cl)ccc1Br (stereo unspecified)
### Response 2.17

### Prompt For the molecule Cc1cccc(N2C(=O)CSC2c2c(Cl)cncc2Cl)n1 (stereo unspecified) , give its measured EC50 value.
### Response 1.64

### Prompt Quickly give me recorded EC50 for CC(C)(C)c1cc(N2C(=O)CSC2c2c(F)cccc2F)no1 (stereo unspecified)
### Response 2.58

### Prompt Provide measured EC50 value, entry: Cc1cc(N2C(=O)CSC2c2c(Cl)cncc2Cl)nc(C)c1Br (stereo unspecified)
### Response 4.8
